- System tested: FSHR (Homo sapiens)
- Construct: purchased Promega (in-house HiBiT-GPCR construct library, NanoBRET)
- Sequence (P23945 18-695): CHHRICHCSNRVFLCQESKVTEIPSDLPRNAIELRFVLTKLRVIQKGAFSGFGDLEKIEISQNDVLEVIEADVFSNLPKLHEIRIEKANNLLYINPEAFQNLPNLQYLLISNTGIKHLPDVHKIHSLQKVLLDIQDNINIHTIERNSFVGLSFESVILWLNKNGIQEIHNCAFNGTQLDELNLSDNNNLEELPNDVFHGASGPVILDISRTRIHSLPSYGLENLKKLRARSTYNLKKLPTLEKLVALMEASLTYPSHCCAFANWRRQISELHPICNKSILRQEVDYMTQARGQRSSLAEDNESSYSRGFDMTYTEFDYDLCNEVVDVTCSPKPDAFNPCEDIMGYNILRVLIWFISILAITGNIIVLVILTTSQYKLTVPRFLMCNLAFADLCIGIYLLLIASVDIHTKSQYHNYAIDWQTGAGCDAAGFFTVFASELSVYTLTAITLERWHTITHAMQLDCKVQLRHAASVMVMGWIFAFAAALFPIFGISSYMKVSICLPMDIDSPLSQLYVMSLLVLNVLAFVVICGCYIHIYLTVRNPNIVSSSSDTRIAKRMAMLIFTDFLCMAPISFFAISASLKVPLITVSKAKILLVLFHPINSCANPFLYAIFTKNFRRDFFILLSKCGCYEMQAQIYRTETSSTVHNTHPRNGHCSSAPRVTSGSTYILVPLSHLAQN
- Test details: NanoBRET screen HiBiT-FSHR in HEK293
- Assay type: binding
- Measurement parameters: FSHR; tracer 0.1μM
Value kind: NanoBRET Fold Response
# respond with the number and nothing more

// solved cases for NanoBRET Fold Response follow
[
  {
    "Entry smiles": "CC(C)N(CC[C@H](c1ccccc1)c1cc(CCNC(=O)CCOCCOCCOCCOCCNC(=O)CCc2ccc3n2[B-](F)(F)[N+]2=C(c4ccc[nH]4)C=CC2=C3)ccc1O)C(C)C",
    "Measured": 0.78
  },
  {
    "Entry smiles": "Cc1cc2c(s1)Nc1ccccc1N=C2N1CCN(CCCNC(=O)CCOCCOCCOCCOCCNC(=O)CCc2ccc3n2[B-](F)(F)[N+]2=C(c4ccc[nH]4)C=CC2=C3)CC1",
    "Measured": 1.10
  }
]

Query: Annotate the compound COc1ccccc1N1CCN(CCCCN2C(=O)c3ccc(CNC(=O)CCOCCOCCOCCOCCNC(=O)CCc4ccc5n4[B-](F)(F)[N+]4=C(c6ccc[nH]6)C=CC4=C5)cc3C2=O)CC1 with its measured NanoBRET Fold Response.
Result: 0.97
